Every entry's value here was drawn from patent US20230324404A1.

- Assayed target: T1, ZIKV VLP (zika virus like particle, isolate Z1106033) (Zika virus isolate Z1106033 (Suriname, …, UniProt A0A024B7W1 123-794))
- T1 construct: also called zika VLP; ZIKV VLPs
Recorded endpoint: EC50 (µg/mL)
Provide the reading as a plain figure in µg/mL.

Here's what some known entries look like.
Binder	Unit of measure	Numeric value
Anti-ZIKV #3 (Clone 270-12) (antibody, V domains shown) VH: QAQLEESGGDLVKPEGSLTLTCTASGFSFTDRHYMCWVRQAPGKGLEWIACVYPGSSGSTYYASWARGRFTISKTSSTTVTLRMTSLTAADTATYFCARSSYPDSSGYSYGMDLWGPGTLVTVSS VL: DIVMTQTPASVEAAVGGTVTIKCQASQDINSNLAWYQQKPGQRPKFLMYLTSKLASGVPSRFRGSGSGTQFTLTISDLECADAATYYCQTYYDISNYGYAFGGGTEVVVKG	µg/mL	0.181
Anti-ZIKV #2 (Clone 242-3) (antibody, V domains shown) VH: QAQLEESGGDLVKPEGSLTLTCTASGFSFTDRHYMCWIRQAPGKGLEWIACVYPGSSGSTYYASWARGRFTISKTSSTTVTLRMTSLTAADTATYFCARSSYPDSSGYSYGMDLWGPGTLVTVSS VL: DIVMTQTPASVEAAVGGTVTIKCQASQNINSNLAWYQQKPGQRPKFLMYLTSKLASGVPSRFRGSGSGTQFTLTISDLECADAATYYCQTYYDISNYGYAFGGGTEVVVKG	µg/mL	0.14

Here's the next entry for you.
Data request: Recorded EC50 for Anti-ZIKV #5 (Clone 306-2) (antibody, V domains shown) VH: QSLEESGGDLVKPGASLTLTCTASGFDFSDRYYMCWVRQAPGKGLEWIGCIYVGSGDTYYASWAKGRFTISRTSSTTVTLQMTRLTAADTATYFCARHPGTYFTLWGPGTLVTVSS VL: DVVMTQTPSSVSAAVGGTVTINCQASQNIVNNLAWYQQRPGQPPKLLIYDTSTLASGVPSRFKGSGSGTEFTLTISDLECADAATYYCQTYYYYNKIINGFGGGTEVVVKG , please?
Data returned: 0.256
